assay: activity coefficient (dimensionless); of the first substance listed, at infinite dilution; xn = mol fraction of the nth substance listed; details: 353.15 K; 101 kPa; Liquid; Chromatography; x1 = 0
readout: activity coefficient

Solved entries (count: 2):
// query activity coefficient value for entry CC(C)CC(C)(C)C [2,2,4-trimethylpentane] + CCCCn1cc[n+](C)c1.O=S(=O)([O-])C(F)(F)F
43.9

// query activity coefficient value for entry Cc1cccc(C)c1 [1,3-dimethylbenzene] + CCCCn1cc[n+](C)c1.O=S(=O)([O-])C(F)(F)F
4.33

// moving on: another record for activity coefficient
// query activity coefficient value for entry Cc1ccc(C)cc1 [1,4-dimethylbenzene] + CCCCn1cc[n+](C)c1.O=S(=O)([O-])C(F)(F)F
4.42

Each recorded value in this set is attributed to the NIST ThermoML archive (doi:10.1021/je700282w).
